Where do these numbers come from? They come from patent US20220195015A1.

Target Or Test System: SARS-CoV-2 spike receptor binding domain (RBD), wild type (SARS-CoV-2, UniProt P0DTC2 319-539)
Measurement Protocol: ELISA, RBD protein coated, mAb titrated

# Binder, Measurement Units, EC50
rows = [
    ("C533 (antibody, V domains shown) VH: EVQLVESGGSLVKPGGSLRLSCVASGLTFNHAWMSWVRQAPGKGLEWVGRIKSKIDGGTTDYAAPVKGRFTISRDDSKSTQYLQMNSLKTEDTAVYYCTTDCFWRLGGTTCYEHDAFDVWGQGTMVTVSS VL: DIQMTQSPSSLSASVGDRVTITCRASQAIATFLNWYQQKPGKAPKLLIYAASSLQSGVPSRFSGSGSGTDFTLTISNLQPEDFATYYCQQSYNSLHFGGGTKVEIK", "ng/mL", 1.61),
    ("C552 (antibody, V domains shown) VH: QVQLVESGGGVVQPGRSLRLSCAASGFTFSSYAMHWVRQAPGKGLEWVALISYDGSNKHYADSVKGRFTISRDNSKNTLYLQMNSLRAEDTAVYYCARAGTTNSDYFDYWGQGTLVTVSS VL: SYELTQPPSVSVAPGKTARITCGGNNIGSKSVHWYQQKPGQAPVLVIYYDTDRPSGIPERFSGSNSGNTATLTISRVEAGDEADYYCQVWDSSSALWVFGGGTKLTVL", "ng/mL", 1.08),
]
